Just for reference, ChEMBL document CHEMBL1250476 is where these values come from.

# Test system: Aspergillus fumigatus
# Assay Protocol: Antifungal activity against Aspergillus fumigatus by micro-broth dilution method
# Assay type: functional
Recorded MIC values for a group of compounds are listed next.

Compound: CC(C)N(Cc1cn(Cc2ccccc2)nn1)CC(O)(Cn1cncn1)c1ccc(F)cc1F (stereo unspecified)
MIC: 64 µg/mL

So what's the measured MIC for this one? Cc1ccc(Cn2cc(CN(CC(O)(Cn3cncn3)c3ccc(F)cc3F)C(C)C)nn2)cc1 (stereo unspecified) > 64 µg/mL

Using the record for CC(C)N(Cc1cn(Cc2cccc(Br)c2)nn1)CC(O)(Cn1cncn1)c1ccc(F)cc1F (stereo unspecified) , report its MIC. > 64 µg/mL

Fill in: MIC of CCCCCn1cc(CN(CC(O)(Cn2cncn2)c2ccc(F)cc2F)C2CC2)nn1 (stereo unspecified) is ___ > 64 µg/mL

Fill in the blank: the reported MIC of CCCCCCCCCCCCCCCCn1cc(CN(CC(O)(Cn2cncn2)c2ccc(F)cc2F)C(C)C)nn1 (stereo unspecified) is ____. > 64 µg/mL

Value lookup for MIC; key = CC(C)(C)c1ccc(Cn2cc(CN(CC(O)(Cn3cncn3)c3ccc(F)cc3F)C3CC3)nn2)cc1 (stereo unspecified) > 64 µg/mL

I am curious: what MIC value has been reported for N#Cc1ccc(Cn2cc(CN(CC(O)(Cn3cncn3)c3ccc(F)cc3F)C3CC3)nn2)cc1 (stereo unspecified) ? > 64 µg/mL

# input compound: CC(C)N(Cc1cn(Cc2ccc(Br)cc2)nn1)CC(O)(Cn1cncn1)c1ccc(F)cc1F (stereo unspecified) ; wanted: its MIC > 64 µg/mL
